# MEASUREMENT_TARGET: T1, human glucose-dependent insulinotropic polypeptide receptor (human, UniProt P48546 22-466)
# T1 sequence (looked up): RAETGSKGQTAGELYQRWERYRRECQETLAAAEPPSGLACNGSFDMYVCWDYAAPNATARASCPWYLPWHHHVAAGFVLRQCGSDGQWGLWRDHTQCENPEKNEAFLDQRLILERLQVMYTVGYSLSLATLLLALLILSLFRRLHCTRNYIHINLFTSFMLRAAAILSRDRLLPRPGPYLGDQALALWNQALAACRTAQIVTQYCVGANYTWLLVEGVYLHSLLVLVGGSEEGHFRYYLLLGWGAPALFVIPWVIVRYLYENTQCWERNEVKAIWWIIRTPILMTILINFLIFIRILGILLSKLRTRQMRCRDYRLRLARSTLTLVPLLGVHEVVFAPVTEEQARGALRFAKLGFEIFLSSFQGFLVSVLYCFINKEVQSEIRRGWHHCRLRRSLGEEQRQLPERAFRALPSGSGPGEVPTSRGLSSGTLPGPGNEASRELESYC
# ASSAY_REMARKS: cell-based or functional assay
Lab note: anything with EC50 (intracellular cAMP) below 9 nM is marked rule met; values at 9 nM or higher are marked rule not met.

As a guide, the following entries are already answered.
binder="YXEGTFTSDYSIXLDKIAQKAXVQWLIAGGPSSGAPPPS (Aib at positions 2 and 13; K at position 20 conjugated at the epsilon-amino group with ([2-(2-Amino-ethoxy)-ethoxy]-acetyl)2-(γGlu)1-CO-(CH2)16-CO2H; 1-Nal at position 22; C-terminal primary amide, Synthetic acylated peptide, trifluoroacetate salt) [Example 6]" cat="rule met"
binder="YXEGTFTSDYSIXLDKIAQKAFVQWLIAGGPSSGAPPPS (Aib at positions 2 and 13; K at position 20 conjugated at the epsilon-amino group with ([2-(2-Amino-ethoxy)-ethoxy]-acetyl)2-(γGlu)2-CO-(CH2)16-CO2H; C-terminal primary amide, Synthetic acylated peptide, trifluoroacetate salt) [Example 4]" cat="rule met"

Query: Hello, is EC50 (intracellular cAMP) of the following binder strictly smaller than 9 nM? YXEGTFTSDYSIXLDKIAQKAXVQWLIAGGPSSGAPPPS (Aib at positions 2 and 13; K at position 20 conjugated at the epsilon-amino group with ([2-(2-Amino-ethoxy)-ethoxy]-acetyl)2-(γGlu)1-CO-(CH2)18-CO2H; 1-Nal at position 22; C-terminal primary amide, Synthetic acylated peptide, trifluoroacetate salt) [Example 8]
Result: rule not met

Query: Input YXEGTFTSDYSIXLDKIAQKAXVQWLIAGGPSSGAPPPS (Aib at positions 2 and 13; K at position 20 conjugated at the epsilon-amino group with ([2-(2-Amino-ethoxy)-ethoxy]-acetyl)2-(γGlu)2-CO-(CH2)18-CO2H; 1-Nal at position 22; C-terminal primary amide, Synthetic acylated peptide, trifluoroacetate salt) [Example 2]
Result: rule not met

Query: Again, but for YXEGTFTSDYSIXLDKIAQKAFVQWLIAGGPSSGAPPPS (Aib at positions 2 and 13; K at position 20 conjugated at the epsilon-amino group with ([2-(2-Amino-ethoxy)-ethoxy]-acetyl)2-(γGlu)1-CO-(CH2)16-CO2H; C-terminal primary amide, Synthetic acylated peptide, trifluoroacetate salt) [Example 3]
Result: rule met

Query: Same question for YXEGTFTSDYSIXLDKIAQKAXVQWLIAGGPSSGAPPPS (Aib at positions 2 and 13; K at position 20 conjugated at the epsilon-amino group with ([2-(2-Amino-ethoxy)-ethoxy]-acetyl)2-(γGlu)2-CO-(CH2)16-CO2H; 1-Nal at position 22; C-terminal primary amide, Synthetic acylated peptide, trifluoroacetate salt) [Example 7] please.
Result: rule met
